- Test system: Influenza A H9N2 virus neuraminidase
- PROTOCOL: Inhibition of Influenza A H9N2 virus neuraminidase activity after 2 hrs by spectrofluorometry
MEASURED ATTRIBUTE: IC50 (µM)

- SMILES REPR: "O=C(C=Cc1ccc(O)cc1)c1ccc(O)cc1O"
  MEASURED ATTRIBUTE: "IC50"
  MEASURE UNIT: "µM"
  OBSERVED: 37.8
